# target: AjKissR1 (Apostichopus japonicus)
# Sequence (A0A5B7LK60 1-378): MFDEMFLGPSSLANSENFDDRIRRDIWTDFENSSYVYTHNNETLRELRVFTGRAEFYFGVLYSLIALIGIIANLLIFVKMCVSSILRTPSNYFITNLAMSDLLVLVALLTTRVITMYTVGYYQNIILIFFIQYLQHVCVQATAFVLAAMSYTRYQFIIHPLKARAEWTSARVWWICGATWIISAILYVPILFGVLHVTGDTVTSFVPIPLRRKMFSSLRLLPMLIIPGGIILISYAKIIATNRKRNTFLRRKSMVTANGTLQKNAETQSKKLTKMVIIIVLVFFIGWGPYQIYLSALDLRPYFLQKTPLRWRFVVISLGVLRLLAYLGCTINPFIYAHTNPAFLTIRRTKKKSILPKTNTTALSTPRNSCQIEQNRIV
# assay_overview: cell-based
# Assay type: cell-based
# study_conditions: HEK293, Fura-2/AM; vertebrate kisspeptins and FITC-AjKiss1a at 1.0 μM
value_kind: Potency in triggering intracellular Ca2+ mobilization via AjKissR1 (in words)

[[record]]
substance = "GRQPNRNAHYRTLPF-NH2 [AjKiss1a-15, truncated peptide of AjKiss1a]"
target = "AjKissR1 (Apostichopus japonicus)"
reported_result = "failed to activate"

[[record]]
substance = "AHYRTLPF-NH2 [AjKiss1a-10, truncated peptide of AjKiss1a]"
target = "AjKissR1 (Apostichopus japonicus)"
reported_result = "failed to activate"

